Item-by-item account of phosphorylation enrichment
Target: FGFR3 (UniProt P22607)
Sequence (P22607 whole entry, looked up): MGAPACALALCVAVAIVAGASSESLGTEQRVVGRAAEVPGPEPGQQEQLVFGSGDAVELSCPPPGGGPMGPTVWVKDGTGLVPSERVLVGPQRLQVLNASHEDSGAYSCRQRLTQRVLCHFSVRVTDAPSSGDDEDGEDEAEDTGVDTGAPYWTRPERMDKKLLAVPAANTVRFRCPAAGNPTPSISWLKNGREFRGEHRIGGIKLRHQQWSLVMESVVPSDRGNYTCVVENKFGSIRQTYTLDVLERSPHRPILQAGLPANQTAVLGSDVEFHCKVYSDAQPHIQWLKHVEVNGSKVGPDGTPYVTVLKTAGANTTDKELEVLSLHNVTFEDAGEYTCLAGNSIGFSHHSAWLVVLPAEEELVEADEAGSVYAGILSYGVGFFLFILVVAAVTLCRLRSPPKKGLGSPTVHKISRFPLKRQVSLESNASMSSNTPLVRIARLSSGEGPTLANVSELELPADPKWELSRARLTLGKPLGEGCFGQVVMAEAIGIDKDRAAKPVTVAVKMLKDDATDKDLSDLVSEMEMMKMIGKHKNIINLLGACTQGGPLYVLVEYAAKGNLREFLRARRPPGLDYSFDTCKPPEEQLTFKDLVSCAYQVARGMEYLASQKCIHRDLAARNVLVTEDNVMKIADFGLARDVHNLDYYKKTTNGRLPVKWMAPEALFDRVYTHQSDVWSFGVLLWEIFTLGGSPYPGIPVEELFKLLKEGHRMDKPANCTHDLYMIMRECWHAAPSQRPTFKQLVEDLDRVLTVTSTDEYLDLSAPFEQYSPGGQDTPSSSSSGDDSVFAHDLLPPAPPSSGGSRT
Test: phosphorylation enrichment, bacterial display (enrichment ratio); higher = better substrate or ligand; peptides without Tyr show the background;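 note: 11-residue human phosphosite peptides and single-mutation variants displayed on the E. coli surface, counted by deep sequencing, each peptide's frequency after selection divided by its frequency in the unselected input library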;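 note: frequency after pTyr selection over input frequency; kinase dosed for 20-30% of maximal phosphorylation in three min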
Value Kind: phosphorylation enrichment

Sequence Content	Tested Target	Value Measured
ALAHKYQGGGG [HBB_Y146_H147Q]	FGFR3 (UniProt P22607)	0.476
ALLVFYAATIA [SLC20A2_Y187_P184L]	FGFR3 (UniProt P22607)	0.672
MGSFNYLGFPR [SPTLC2_Y178_A182P_YF]	FGFR3 (UniProt P22607)	0.534
GRVLGYGTFGK [FLT4_Y853_A855T]	FGFR3 (UniProt P22607)	0.414
FADIAYNFRQG [PAH_Y166_H170Q_YF]	FGFR3 (UniProt P22607)	0.601
FPRAWYRRSIA [KIAA1109_Y4272]	FGFR3 (UniProt P22607)	0.381
YCRHNYGVVES [HLA-DRB1_Y112]	FGFR3 (UniProt P22607)	0.527
RRVLVYVGRGA [QDPR_Y16_G17V]	FGFR3 (UniProt P22607)	0.648
IGKAGYTDKVV [ENO1_Y236]	FGFR3 (UniProt P22607)	0.508
ENRKYYMDLKE [PURA_Y156]	FGFR3 (UniProt P22607)	0.573
ESMLRYEVFGG [STOX1_Y607_YF]	FGFR3 (UniProt P22607)	0.641
RSFLSYYTSHV [NEFL_Y442_P440L]	FGFR3 (UniProt P22607)	0.834
GAVGHYVLAER [HFE_Y342_M339V]	FGFR3 (UniProt P22607)	1.23
YRDALYKFMVD [PHEX_Y250]	FGFR3 (UniProt P22607)	1.25
RNVLVYDKLNV [ROR2_Y624]	FGFR3 (UniProt P22607)	0.787
TEAEPYFCSLR [NPHS1_Y1138_R1140C_YF]	FGFR3 (UniProt P22607)	0.698
LSSEMCVKSFT [F5_Y2149_Y2149C_YF]	FGFR3 (UniProt P22607)	1.13
ETMNKYDLSGR [MYEF2_Y164]	FGFR3 (UniProt P22607)	0.498
QKINNYLTVPA [SLC9A1_Y683]	FGFR3 (UniProt P22607)	0.445
GKGGSYSKAES [HLA-E_Y341_W346S]	FGFR3 (UniProt P22607)	0.394
PRRRFYVVACD [RNASE3_Y134_G130R]	FGFR3 (UniProt P22607)	0.656
NHYKIYNLYAE [PTEN_Y68_C71Y]	FGFR3 (UniProt P22607)	0.541
LLREWYLPDPY [SIX3_Y225_Q227P]	FGFR3 (UniProt P22607)	0.816
KKLAEYGPQGR [CLCA1_Y147]	FGFR3 (UniProt P22607)	0.361
KLLPEYPGVLS [DHFR2_Y163]	FGFR3 (UniProt P22607)	0.564
DFKIIYIAPMR [SNRNP200_Y540]	FGFR3 (UniProt P22607)	0.616
SGIFQYNIAKF [FOXL2_Y83_I84N_YF]	FGFR3 (UniProt P22607)	0.691
ADKSAYLMGVN [MYH7_Y386_L390V]	FGFR3 (UniProt P22607)	0.466
KSSDVYVSYDC [SORL1_Y136_Y141C]	FGFR3 (UniProt P22607)	1.35
FRPPFYHRDCM [HGD_Y334_N337D_YF]	FGFR3 (UniProt P22607)	0.724
PELINYHQHNS [BTK_Y361]	FGFR3 (UniProt P22607)	1.02
FTYDPYSEEDP [IL2RB_Y387]	FGFR3 (UniProt P22607)	0.822
IEDNKYTAREG [HCK_Y411_E410K]	FGFR3 (UniProt P22607)	0.545
RAIELYNDKEK [OTULIN_Y244]	FGFR3 (UniProt P22607)	0.924
ANVIRYFPTQA [SLC25A4_Y81]	FGFR3 (UniProt P22607)	0.492
EYGSGYPNDPK [RNASEH2A_Y210_D205E]	FGFR3 (UniProt P22607)	0.474
PTEAQYRFIFM [PTPN11_Y511_Q506P_YF]	FGFR3 (UniProt P22607)	1.21
TGNPAYRSFSN [IL4R_Y497_A492T]	FGFR3 (UniProt P22607)	0.457
IFLADCRIMEG [ALOX12B_Y318_Y318C_YF]	FGFR3 (UniProt P22607)	1.02
PMWHPYKVDVT [TP53TG5_Y255]	FGFR3 (UniProt P22607)	0.872
YRQLPYCPSVE [CTNND2_Y508_Q507P]	FGFR3 (UniProt P22607)	1.41
MDQAEYQAKIQ [DHX58_Y518_R523Q]	FGFR3 (UniProt P22607)	0.685
MCITQYERESQ [PRNP_Y218]	FGFR3 (UniProt P22607)	0.557
TTPGPHRSIYF [MPG_Y71_Y71H]	FGFR3 (UniProt P22607)	0.526
EKKKFYDTKIE [CASP5_Y104_YF]	FGFR3 (UniProt P22607)	0.567
MKGDYYRYLAE [YWHAG_Y131]	FGFR3 (UniProt P22607)	6.43
TEDPEYDVQSK [PTCHD3_Y335]	FGFR3 (UniProt P22607)	0.738
IPGRYYETGSI [PAX2_Y73_L69P]	FGFR3 (UniProt P22607)	0.498
YAFQLYDLDRD [CHP2_Y123]	FGFR3 (UniProt P22607)	1.55
KNNDGYTDFAE [MCFD2_Y135_I136T_YF]	FGFR3 (UniProt P22607)	0.732
SGGCSYGSGGG [KRT1_Y539_G537C]	FGFR3 (UniProt P22607)	0.561
RIVEIYSRSLQ [GCH1_Y175_R178S]	FGFR3 (UniProt P22607)	1.67
AAVLNYKAWRD [GRIN2A_Y737_G740W]	FGFR3 (UniProt P22607)	0.462

Source: the supplement of paper PMC10065799
